The origin of these recorded values is paper PMC12707346.

- methodDescription: Solubility observations in assay media
- Assay type: physicochemical
- recordedConditions: assay media; FB303 patient fibroblast assay; read-out: Notes: solubility problems above concentration
property: solubility

Need solubility, item c1ccc(-c2ccc(CNc3nc(-c4ccccn4)nnc3-c3ccccc3)cc2)cc1 [ML228, reference compound]
> 3 µM

====

- methodDescription: Tissue distribution study in mice, 20 mg/kg i.p.
- Format: in vivo, C57BL/6 J mice
- recordedConditions: male, C57BL/6J, mouse, muscle homogenate, ip, 20 mg/kg, Muscle, 1 h, IP 20 mg/kg, read-out: Mean Plasma or Tissue Homogenate Conc
property: concentration at 1 h (ng/mL)
Numbers only, in ng/mL.

Need concentration at 1 h, item c1ccc(-c2nnc(-c3ccccn3)nc2NC2CCCCC2)cc1 [MolPort-002-877-424, C1CCC(CC1)Nc2nc(nnc2c3ccccc3)c4ccccn4]
390
